Sourced from PubChem BioAssay AID1963826

# Test system: 926638-142-R-J1-PDC complex spheroid viability
# METHOD NOTES: Anticancer human tumor 926638-142-R-J1-PDC patient-derived endometrial carcinoma cell line growth inhibition [POLQ]
# CONDITION SET: curve of first compound; second compound 10 µM
# Experimental: Multicellular complex tumor spheroid response to Polymerase (POL) inhibitors (novobiocin, ART-558, RP6685) in combination with a variety of drugs and investigational agents in selected tumor cell lines The POL inhibitors (novobiocin, ART-558, and RP6685) were evaluated both individually and in combination with standard of care and investigational anticancer small molecules within a complex spheroid model of solid tumors. . […]
pIC50: −log10 of the molar value.
READOUT KIND: pIC50

C#Cc1c(F)ccc2cc(O)cc(-c3ncc4c(N5CC6CCC(C5)N6)nc(OCC56CCCN5CC(F)C6)nc4c3F)c12 (stereo not given) + COC1C(OC(N)=O)C(O)C(Oc2ccc3c(O)c(NC(=O)c4ccc(O)c(CC=C(C)C)c4)c(=O)oc3c2C)OC1(C)C
< 5.00
Cn1ncnc1[C@H]1c2n[nH]c(=O)c3cc(F)cc(c23)N[C@@H]1c1ccc(F)cc1 + COC1C(OC(N)=O)C(O)C(Oc2ccc3c(O)c(NC(=O)c4ccc(O)c(CC=C(C)C)c4)c(=O)oc3c2C)OC1(C)C
< 7.00
CNCc1ccc(-c2[nH]c3cc(F)cc4c3c2CCNC4=O)cc1 + COC1C(OC(N)=O)C(O)C(Oc2ccc3c(O)c(NC(=O)c4ccc(O)c(CC=C(C)C)c4)c(=O)oc3c2C)OC1(C)C
< 5.00
C=CC(=O)N1CCN(c2nc(=O)n(-c3c(C)ccnc3C(C)C)c3nc(-c4c(O)cccc4F)c(F)cc23)C(C)C1 (stereo not given) + Nc1ccc(C#CCN(C(=O)Cc2ncc(C(F)(F)F)cc2C(F)(F)F)c2ccc(F)cc2)nn1
< 5.00
CNCc1ccc(-c2[nH]c3cc(F)cc4c3c2CCNC4=O)cc1 + Cc1cccc(N(C)C(=O)C2C(O)CCN2c2nc(C)cc(C(F)(F)F)c2C#N)c1
< 5.00

---

# Test system: 926638-142-R-J1-PDC complex spheroid viability
# METHOD NOTES: Anticancer human tumor 926638-142-R-J1-PDC cell line growth inhibition [POLQ];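 also: spheroids exposed to drugs for one week before readout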;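 as to viability, T/C: percent viability relative to DMSO vehicle control wells set as 100%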
# CONDITION SET: second compound 1 µM; first compound 0.316 µM; stronger effect = lower value
# Method: Multicellular complex tumor spheroid response to Polymerase (POL) inhibitors (novobiocin, ART-558, RP6685) in combination with a variety of drugs and investigational agents in selected tumor cell lines The POL inhibitors (novobiocin, ART-558, and RP6685) were evaluated both individually and in combination with standard of care and investigational anticancer small molecules within a complex spheroid model of solid tumors. . […]
Let's look at some molecules and their measured viability, T/C.
READOUT KIND: viability, T/C (%)

COc1cc(C2c3cc4c(cc3C(OC3OC5COC(C)OC5C(O)C3O)C3COC(=O)C23)OCO4)cc(OC)c1O (stereo not given) + COC1C(OC(N)=O)C(O)C(Oc2ccc3c(O)c(NC(=O)c4ccc(O)c(CC=C(C)C)c4)c(=O)oc3c2C)OC1(C)C
79
COc1cccc2c1C(=O)c1c(O)c3c(c(O)c1C2=O)CC(O)(C(=O)CO)CC3OC1CC(N)C(O)C(C)O1 (stereo not given) + Cc1cccc(N(C)C(=O)C2C(O)CCN2c2nc(C)cc(C(F)(F)F)c2C#N)c1
17.4
COc1cccc2c1C(=O)c1c(O)c3c(c(O)c1C2=O)CC(O)(C(=O)CO)CC3OC1CC(N)C(O)C(C)O1 (stereo not given) + COC1C(OC(N)=O)C(O)C(Oc2ccc3c(O)c(NC(=O)c4ccc(O)c(CC=C(C)C)c4)c(=O)oc3c2C)OC1(C)C
14
CC(C)n1c(=O)n(C)c2cnc3cc(F)c(-c4ccc(OCCCN5CCCCC5)nc4)cc3c21 + Cc1cccc(N(C)C(=O)C2C(O)CCN2c2nc(C)cc(C(F)(F)F)c2C#N)c1
78.5
CCc1c2c(nc3ccc(O)cc13)-c1cc3c(c(=O)n1C2)COC(=O)[C@]3(O)CC + Cc1cccc(N(C)C(=O)C2C(O)CCN2c2nc(C)cc(C(F)(F)F)c2C#N)c1
13.9
C=CC(=O)N1CCN(c2nc(=O)n(-c3c(C)ccnc3C(C)C)c3nc(-c4c(O)cccc4F)c(F)cc23)C(C)C1 (stereo not given) + Cc1cccc(N(C)C(=O)C2C(O)CCN2c2nc(C)cc(C(F)(F)F)c2C#N)c1
79.2
CCc1cc2c(N3CCc4c(cc(Cn5ccnc5)cc4-c4cn(C)nc4C(F)(F)F)C3=O)cc(C)nc2c(OC)n1 + Nc1ccc(C#CCN(C(=O)Cc2ncc(C(F)(F)F)cc2C(F)(F)F)c2ccc(F)cc2)nn1
56.6
CCc1c2c(nc3ccc(O)cc13)-c1cc3c(c(=O)n1C2)COC(=O)[C@]3(O)CC + Nc1ccc(C#CCN(C(=O)Cc2ncc(C(F)(F)F)cc2C(F)(F)F)c2ccc(F)cc2)nn1
15.4
C#Cc1c(F)ccc2cc(O)cc(-c3ncc4c(N5CC6CCC(C5)N6)nc(OCC56CCCN5CC(F)C6)nc4c3F)c12 (stereo not given) + Nc1ccc(C#CCN(C(=O)Cc2ncc(C(F)(F)F)cc2C(F)(F)F)c2ccc(F)cc2)nn1
89.4
C=CCn1c(=O)c2cnc(Nc3ccc(N4CCN(C)CC4)cc3)nc2n1-c1cccc(C(C)(C)O)n1 + Nc1ccc(C#CCN(C(=O)Cc2ncc(C(F)(F)F)cc2C(F)(F)F)c2ccc(F)cc2)nn1
57.1
